Taken from patent EP4269437A1.

tested-on: PD-1 (UniProt Q15116)
Sequence (Q15116 25-170 limits assumed): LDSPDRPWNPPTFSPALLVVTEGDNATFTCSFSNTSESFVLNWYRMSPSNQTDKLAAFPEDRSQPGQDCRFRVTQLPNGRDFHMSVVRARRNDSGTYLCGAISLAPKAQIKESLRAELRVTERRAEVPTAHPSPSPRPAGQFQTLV
test-name: blocking ELISA, clone supernatant, competitor PD-L1.hFc detected with anti-human Fc HRP

# binder, OD450, PD-L1 binding with PD-1 / OD450
rows = [
    ("NB215 (VHH) VHH: EVQVVESGGGLVQAGDSLRLSCAASGGTISGYEMGWFRQAPGKEREFVAGISRNGRSTGYSDSAKDRFTISRDNAKNTVYLQMNSLKPEDTAVYYCAAGLKADYGDSYVDTSTRNYNYWGQGTQVTVSS", 1.27),
    ("NB202 (VHH) VHH: EVQVVESGGGLVQAGGSLRLSCTASGDTRLASAMGWYRQAPGKERELVAAITNSGLTYYADSVEGRFTISRDSAKNTVYLQMNSLKPEDTAVYYCNAGAPPPGGLGYDESDYWGQGTQVTVSS", 0.723),
    ("NB170 (VHH) VHH: EVQLVESGGGLVQAGDSLRLSCAASGGTFGRLETGWFRQAPGKEREFVAAISWDGETSYADSVKGRFTISRDNAKNTMALQMNRLTPEDTAVYFCAARVILRAYKYWGQGTQVTVSS", 2.02),
    ("NB172 (VHH) VHH: EVQLVESGGGLVQAGGSLRLSCTASGDTRLASAMGWYRQAPGKERELVAVITNSGLTHYADSVEGRFTISRDSAKNTVYLQMNSLKPEDTAVYYCNAGAPPPGGLGYDESDYWDQGTQVTVSS", 2.17),
]
